The following compounds have recorded decrease in the permeability as measured by Papp on Caco-2 cells.
endpoint: decrease in the permeability as measured by Papp

[
  {
    "compound": "[Cl][Hg][Cl] [Hg, mercuric chloride]",
    "measurement_target": "Caco-2 cells",
    "recorded_value": "8.2%"
  },
  {
    "compound": "CC(=O)[O-].CC(=O)[O-].[Pb+2] [Pb, lead acetate]",
    "measurement_target": "Caco-2 cells",
    "recorded_value": "7.9%"
  },
  {
    "compound": "O=[As]O[As]=O (stereo not shown) [As, arsenic oxide (As III)]",
    "measurement_target": "Caco-2 cells",
    "recorded_value": "7.5%"
  },
  {
    "compound": "CC(=O)[O-].CC(=O)[O-].[Cd+2] [Cd, cadmium acetate]",
    "measurement_target": "Caco-2 cells",
    "recorded_value": "6.3%"
  }
]
